Experimental target: Zif268 finger 2 variant REDV finger 2 alpha-helix variant REDV (full helix only in FIG. 1D) (Mus musculus)
Measurement setup: [none]; apparent Kd interpolated from microarray signal 0.058
Endpoint name: pKd
Answers are plain numbers, as −log10 of the molar value.

Prompt: Tell me the measured pKd of TATATAGCGCTCGCGTATATATCAAGTCAATCGGTCC (double strand) [Zif268 site CTC] , please.
Response: 5.74

----------
Experimental target: Zif268 finger 2 variant KASN finger 2 alpha-helix variant KASN (full helix only in FIG. 1D) (Mus musculus) (UniProt P08046)
Measurement setup: [none]; apparent Kd interpolated from microarray signal 0.848
Endpoint name: pKd
Give bare numbers, as −log10 of the molar value.

Prompt: For TATATAGCGCGTGCGTATATATCAAGTCAATCGGTCC (double strand) [Zif268 site CGT] , what is its reported pKd?
Response: 6.48

----------
Experimental target: Zif268 finger 2 variant KASN finger 2 alpha-helix variant KASN (full helix only in FIG. 1D) (Mus musculus)
Measurement setup: [none]; apparent Kd interpolated from microarray signal 0.774
Endpoint name: pKd
Give bare numbers, as −log10 of the molar value.

Prompt: Find the recorded pKd belonging to TATATAGCGCGCGCGTATATATCAAGTCAATCGGTCC (double strand) [Zif268 site CGC] and report it.
Response: 6.41

----------
Experimental target: Zif268 finger 2 variant LRHN finger 2 alpha-helix variant LRHN (full helix only in FIG. 1D) (Mus musculus)
Assay procedure: ELONA
Measurement setup: [none]; apparent Kd, phage ELISA, PBS/Zn, RT
Endpoint name: pKd
Give bare numbers, as −log10 of the molar value.

INSERT INTO measurements (sequence_chain, endpoint_name, reported_value) VALUES
  ('TATATAGCGTATGCGTATATATCAAGTCAATCGGTCC (double strand) [Zif268 site TAT]', 'pKd', 8.20),
  ('TATATAGCGATTGCGTATATATCAAGTCAATCGGTCC (double strand) [Zif268 site ATT]', 'pKd', 6.62);

Parameter requested: pKd. Apply to each item below.
1. TATATAGCGTAGGCGTATATATCAAGTCAATCGGTCC (double strand) [Zif268 site TAG]
2. TATATAGCGAATGCGTATATATCAAGTCAATCGGTCC (double strand) [Zif268 site AAT]
3. TATATAGCGCATGCGTATATATCAAGTCAATCGGTCC (double strand) [Zif268 site CAT]

Response:
6.96
6.96
6.92

----------
Experimental target: Zif268 finger 2 variant RGPD finger 2 alpha-helix variant RGPD (full helix only in FIG. 1D) (Mus musculus) (UniProt P08046)
Measurement setup: [none]; apparent Kd interpolated from microarray signal 0.175
Endpoint name: pKd
Numbers only, as −log10 of the molar value.

Prompt: Which value of pKd has been reported for TATATAGCGGTGGCGTATATATCAAGTCAATCGGTCC (double strand) [Zif268 site GTG] in the records?
Response: 6.21

----------
Experimental target: Zif268 finger 2 variant KASN finger 2 alpha-helix variant KASN (full helix only in FIG. 1D) (Mus musculus) (UniProt P08046)
Measurement setup: [none]; apparent Kd interpolated from microarray signal 0.942
Endpoint name: Kd (nM)
One number for each entry, in nM.

Prompt: Please give the measured Kd for this sequence: TATATAGCGATTGCGTATATATCAAGTCAATCGGTCC (double strand) [Zif268 site ATT]
Response: 270

Where do the numbers come from? From patent US20040203002.
